molecular target: isolated recombinant CYP3A4 (Homo sapiens, UniProt P08684); assay: Equilibrium ligand binding to CYP3A4; conditions: high spin content of ligand-bound CYP3A4; mean of three ± SD
Sequence (P08684 whole entry): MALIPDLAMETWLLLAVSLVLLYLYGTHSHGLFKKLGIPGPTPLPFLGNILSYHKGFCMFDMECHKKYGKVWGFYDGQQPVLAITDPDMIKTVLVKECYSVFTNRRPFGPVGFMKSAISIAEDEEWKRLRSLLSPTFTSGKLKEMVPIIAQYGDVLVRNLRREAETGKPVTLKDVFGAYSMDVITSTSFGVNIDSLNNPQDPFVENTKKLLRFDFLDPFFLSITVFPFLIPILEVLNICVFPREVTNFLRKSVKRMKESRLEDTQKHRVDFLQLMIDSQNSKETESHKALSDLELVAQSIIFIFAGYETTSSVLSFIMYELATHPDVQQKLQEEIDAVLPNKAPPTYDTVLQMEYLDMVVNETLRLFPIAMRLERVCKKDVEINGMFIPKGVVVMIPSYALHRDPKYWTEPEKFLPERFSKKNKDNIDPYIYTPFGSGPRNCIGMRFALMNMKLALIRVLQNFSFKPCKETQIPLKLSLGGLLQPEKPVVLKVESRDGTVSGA
In this section, each of the molecules is paired with its reported high spin.
Respond with the bare value in %.

Sample answers from the record:
C[C@]12CC[C@H]3[C@@H]([C@H](/C=C/C=C/C=C/[C@@H]4CC5=CC(=O)CC[C@]5(C)[C@H]5CC[C@]6(C)[C@H](O)CC[C@H]6[C@H]45)CC4=CC(=O)CC[C@@]43C)[C@@H]1CC[C@H]2O (relative stereo)	46
C[C@]12CC[C@H]3[C@@H]([C@H](/C=C/C=C/C=C/[C@@H]4CC5=CC(=O)CC[C@]5(C)[C@H]5CC[C@]6(C)[C@@H](O)CC[C@H]6[C@H]45)CC4=CC(=O)CC[C@@]43C)[C@@H]1CC[C@@H]2O (relative stereo)	49
C[C@]12CC[C@H]3[C@@H]([C@H](C/C=C\C[C@@H]4CC5=CC(=O)CC[C@]5(C)[C@H]5CC[C@]6(C)[C@@H](O)CC[C@H]6[C@H]45)CC4=CC(=O)CC[C@@]43C)[C@@H]1CC[C@@H]2O [cis-10]	99

Need high spin of C[C@]12CCC(=O)C=C1C[C@@H](/C=C/C=C/C=C/[C@@H]1CC3=CC(=O)CC[C@]3(C)[C@H]3CC[C@]4(C)C(=O)CC[C@H]4[C@H]13)[C@@H]1[C@@H]2CC[C@]2(C)C(=O)CC[C@@H]12 , thanks.
36

meta.source: paper PMC8192494
